Test system: HOP-92
assay_explanation: NCI tumour cell line growth inhibition, 48 h
The source made the active and inactive calls. Rule as the data show it: active = GI50 up to about 1.1 µM and inactive = higher.
Valid outcomes are listed here; reply with one: 1 for active, -1 for inactive

Please state the recorded outcome for this molecule: O=c1[nH]c2ccccc2cc1C(Cl)=C(Cl)Cl
-1

So what was the verdict on CC(=O)N(/N=C\c1ccc([N+](=O)[O-])cc1)c1ccccc1 in this test?
-1

Which outcome was assigned to CN(C)C(=S)/N=c1\ssc(=S)n1Cc1ccccn1 in this test?
-1

// outcome(item) with item = O=C1CN(C(=O)c2ccccc2)Cc2[nH]c3ccccc3c21
-1

Entry COC(=O)C(Cc1c[nH]c2ccccc12)NC(=O)c1ccc(-c2ccc(Cl)cc2Cl)o1 (stereo not given) : call = ?
-1

Check the results log: what was the call for Cc1ccccc1Nc1cn(COCc2ccccc2)c(=O)[nH]c1=O ?
-1

# outcome recorded in this test, key = COc1cc(C2c3cc4c(c(O)c3C(=O)C3CCC(=O)N32)OCO4)cc(OC)c1OC (stereo not given)
-1

Recorded test outcome, item O=c1cc(/C=C/c2ccc(O)c(O)c2)cc(/C=C/c2ccc(O)c(O)c2)o1
-1

What outcome does the record of this test show for O=C([O-])C[n+]1ccccc1.c1ccncc1 ?
-1

Just curious, what result did O=C(CCCNC(=O)OCc1ccccc1)OCc1ccc2c(c1)C(=O)c1ccccc1C2=O get here?
-1

Please state the recorded outcome for this molecule: Cc1nc2sccn2c1C(=O)OCCOCCOCCOCCOC(=O)c1c(C)nc2sccn12
-1

Which result was noted for this molecule in the test: CSc1cnc2ccccc2c1SC1CN(Cc2ccccc2)c2ccccc2C1=O (stereo not given)
-1

Which result was noted for this molecule in the test: COc1ccc(/C(=C/n2ccnc2)C(=O)c2ccc(OC)c(OC)c2)cc1
-1

Which outcome was assigned to O=C1c2ccccc2-[n+]2ccc3c([nH]c4ccccc43)c21 [FASCAPLYSIN CHLORIDE] in this test?
-1

Record lookup: outcome of this test for CCNC(=O)O/N=C1\CCC2[C@@H]3CC=C4C[C@@H](OC(=O)NCC)CC[C@]4(C)C3CC[C@]12C (stereo not given in full) ?
-1

Tell me the assay call for CC(=O)OCC1=C(COC(C)=O)C(=O)c2c(O)ccc(O)c2C1=O please.
-1

How was CC(C(=O)NCNC(=O)c1ccccc1)C(=O)NCc1ccccc1 (stereo not given) classified in this test?
-1

For CCN(CC)CCOc1ccc(CCc2cc(OC)c(OC)c(OC)c2)cc1 , what call appears in the results of this test?
-1

Field: outcome | Entry: O=C1c2cc3ncsc3cc2C(=O)c2c(O)ccc(O)c21
-1

Record request — test call for NC(=O)c1c([N+](=O)[O-])cc(C(F)(F)F)cc1[N+](=O)[O-]
-1

Short answer needed: outcome of this test for CCCO[C@@H]1[C@@H](OC(C)=O)[C@@H](OC(C)=O)C(C)(C)/C=C/[C@H](C)C(=O)[C@@]2(OC(C)=O)C[C@@](C)(OC(C)=O)[C@H](OC(C)=O)[C@@H]2[C@H]2OC(=O)CC[C@@]12OC(=O)c1ccccc1 ?
-1

Per the records of this test, what outcome belongs to COc1ccc(C2c3c(-c4ccccc4)nn(-c4ccccc4)c3Oc3ncn(N)c(=N)c32)cc1OC (stereo not given) ?
-1

GET /call?item= CCOC(=O)c1c(N2CCCC2)nsc1Nc1ccccc1 returns the recorded outcome of this test.
-1

Name the outcome recorded for CCN(CC)C(c1ccc(N(C)C)cc1)C(c1ccc(N(C)C)cc1)N(CC)CC (stereo not given) in the assay.
-1

# outcome recorded in this test, key = Brc1ccc2nc(-c3cccs3)nc(N3CCN(c4ccccc4)CC3)c2c1
-1

Returns: the outcome recorded for Cc1ccc([S+]([O-])/C=C(\NC(=O)OCc2ccccc2)C(F)(F)F)cc1 (stereo not given) in this assay.
-1

Each molecule tested received a call. Report the one for O=C1CCC(=O)N1n1c(Cc2ccc(Cl)cc2)n[nH]c1=O .
-1

What is the recorded call for this molecule in the test? c1ccc(C[N+]23C(CC[C@H]2c2ccccc2)CC[C@H]3c2ccccc2)cc1 (stereo not given in full)
-1

Call for entry C/C=C1\NC(=O)[C@H]2CSSCCC=C[C@H](CC(=O)N[C@H](C(C)C)C(=O)N2)OC(=O)[C@H](C(C)C)NC1=O :
1

# lookup: test call for CCOC(=O)N1CCc2cc(OC)c(OC)c3c2c1cc1cc(OC)c(OC)cc13
-1

Please share the test call associated with Cc1c(-c2coc(-c3ccc(Cl)cc3)n2)c(=O)n(-c2ccccc2)n1C .
-1

Given O=C(Nc1nc2ncn(CCNCc3ccccc3)c2c(=O)[nH]1)c1ccccc1 , state the outcome it received in this test.
-1

Which outcome was assigned to CCCCc1c2c(nc3c1CCc1cc(C=O)c(N)nc1-3)/C(=C/c1ccccc1)CCC2 in this test?
-1

Hey, what did the test say about Cc1ccc2c(/C=C/c3ccc(N(C)C)cc3)ccnc2c1C ?
-1

Just curious, what result did O=C(NCCc1ccc(F)cc1)c1cc(/C=C/c2cc(O)ccc2O)ccc1O get here?
-1

GET /call?item= O=C1c2cccc3cccc(c23)C(=O)N1CCCNCCCNCCCCNCCCNCCCN1C(=O)c2cccc3cccc(c23)C1=O returns the recorded outcome of this test.
-1

Check the results log: what was the call for COc1cccc2c1C(=O)c1c(O)c3c(c(O)c1C2=O)C[C@@](O)(C(=O)CO)C[C@@H]3OC1CC(N)C(OC)C(C)O1 (stereo not given in full) ?
1

Could you please tell me the result logged for COc1c(O)c(O)c2c(c1O)C(=O)c1cc(C)cc(O)c1C2=O in this assay?
-1

Which outcome was entered for the molecule O=C1c2cccc([N+](=O)[O-])c2C(=O)c2nccnc21 in this test?
-1

Each molecule tested received a call. Report the one for Oc1cc2c(cc1O)-c1[nH]ncc1CC2 .
-1

Measured values drawn from ChEMBL document CHEMBL1201862 for this set.
